test system: Glycine max; experiment: Inhibition of soybean LOX assessed as conversion of sodium linoleate to 13- hydroperoxylinoleic acid at 100 uM
The source made the active and inactive calls. The calls are words filed in the database; no cut-off is given here.
experimental readout: inhibition

molecule="CC(C(=O)NNC(=O)NC1CCCC1)c1cccc(Oc2ccccc2)c1 (stereo unspecified)" measured=inactive
molecule="CC(C)Cc1ccc(C(C)C(=O)NNC(=O)NC2CCCCC2)cc1 (stereo unspecified)" measured=inactive
molecule="CC(C(=O)NNC(=O)NNC(=O)NOCc1ccccc1)c1cccc(Cc2ccccc2)c1 (stereo unspecified)" measured=inactive
molecule="CC(C)Cc1ccc(C(C)C(=O)NNC(=O)NCCc2ccccc2)cc1 (stereo unspecified)" measured=inactive
molecule="CC(C(=O)NN)c1cccc(Oc2ccccc2)c1 (stereo unspecified)" measured=3%
molecule=NNC(=O)NOCc1ccccc1 measured=inactive

---

system: Glycine max; assay: Inhibition of soybean LOX assessed as conversion of sodium linoleate to 13- hydroperoxylinoleic acid at 100 uM
Calls of active or inactive are those of the source. The calls are words filed in the database; no cut-off is given here.
experimental readout: inhibition

molecule="CC(C)Cc1ccc(C(C)C(=O)NNC(=O)NC2CCCC2)cc1 (stereo unspecified)" measured=inactive
molecule="CC(C)Cc1ccc(C(C)C(=O)NNC(=O)NCc2ccccc2)cc1 (stereo unspecified)" measured=inactive
molecule="CC(C(=O)NNC(=O)NOCc1ccccc1)c1cccc(Cc2ccccc2)c1 (stereo unspecified)" measured=inactive
molecule="CC(C(=O)NNC(=O)NCC1CCCCC1)c1cccc(Cc2ccccc2)c1 (stereo unspecified)" measured=9%
molecule="CC(C)Cc1ccc(C(C)C(=O)NNC(=O)NNC(=O)NOCc2ccccc2)cc1 (stereo unspecified)" measured=inactive
molecule="CC(C)Cc1ccc(C(C)C(=O)NNC(=O)NCC2CCCCC2)cc1 (stereo unspecified)" measured=25%

---

system: CCRF-CEM; assay: Cytostatic activity against human CEM cells after 3 days by coulter counter analysis; type: functional, cell-based; details: 72 h
IC50 values for the compounds below.
experimental readout: IC50 (µM)

compound="CC(C)Cc1ccc(C(C)C(=O)NNC(=O)NNC(=O)NOCc2ccccc2)cc1 (stereo not given)" experimental_readout=IC50 censor_symbol== measured=106
compound="CC(C(=O)NNC(=O)NO)c1cccc(Cc2ccccc2)c1 (stereo not given)" experimental_readout=IC50 censor_symbol== measured=155
compound="CC(C(=O)NNC(=O)NCCc1ccccc1)c1cccc(Cc2ccccc2)c1 (stereo not given)" experimental_readout=IC50 censor_symbol== measured=29
compound="CC(C)Cc1ccc(C(C)C(=O)NNC(=O)NC2CCCCC2)cc1 (stereo not given)" experimental_readout=IC50 censor_symbol== measured=53
compound="CC(C(=O)NNC(=O)NCc1ccccc1)c1cccc(Cc2ccccc2)c1 (stereo not given)" experimental_readout=IC50 censor_symbol== measured=49
compound="CC(C(=O)NNC(=O)NC(c1ccccc1)c1ccccc1)c1cccc(Oc2ccccc2)c1 (stereo not given)" experimental_readout=IC50 censor_symbol== measured=11
compound=NNC(=O)NOCc1ccccc1 experimental_readout=IC50 censor_symbol=> measured=250
compound="CC(C(=O)NNC(=O)NNC(=O)NOCc1ccccc1)c1cccc(Oc2ccccc2)c1 (stereo not given)" experimental_readout=IC50 censor_symbol== measured=90
compound="CC(C(=O)NNC(=O)NC1CCCCC1)c1cccc(Cc2ccccc2)c1 (stereo not given)" experimental_readout=IC50 censor_symbol== measured=25
compound="CC(C(=O)NNC(=O)NOCc1ccccc1)c1cccc(Cc2ccccc2)c1 (stereo not given)" experimental_readout=IC50 censor_symbol== measured=101
compound="CC(C)Cc1ccc(C(C)C(=O)NNC(=O)NCCc2ccccc2)cc1 (stereo not given)" experimental_readout=IC50 censor_symbol== measured=148
compound="CC(C(=O)NNC(=O)NNC(=O)NO)c1cccc(Oc2ccccc2)c1 (stereo not given)" experimental_readout=IC50 censor_symbol=> measured=250
compound="CC(C(=O)NN)c1cccc(Oc2ccccc2)c1 (stereo not given)" experimental_readout=IC50 censor_symbol== measured=154
compound="CC(C(=O)NNC(=O)NC1CCCCC1)c1cccc(Oc2ccccc2)c1 (stereo not given)" experimental_readout=IC50 censor_symbol== measured=53
compound="CC(C(=O)NNC(=O)NCCc1ccccc1)c1cccc(Oc2ccccc2)c1 (stereo not given)" experimental_readout=IC50 censor_symbol== measured=71
compound="CC(C(=O)NNC(=O)NCC1CCCCC1)c1cccc(Oc2ccccc2)c1 (stereo not given)" experimental_readout=IC50 censor_symbol== measured=24
compound="CC(C(=O)NNC(=O)NC1CCCC1)c1cccc(Cc2ccccc2)c1 (stereo not given)" experimental_readout=IC50 censor_symbol== measured=66
compound="CC(C)Cc1ccc(C(C)C(=O)NNC(=O)NO)cc1 (stereo not given)" experimental_readout=IC50 censor_symbol== measured=205
compound="CC(C)Cc1ccc(C(C)C(=O)NNC(=O)NC(c2ccccc2)c2ccccc2)cc1 (stereo not given)" experimental_readout=IC50 censor_symbol== measured=23
compound="CC(C(=O)NNC(=O)NC1CCCC1)c1cccc(Oc2ccccc2)c1 (stereo not given)" experimental_readout=IC50 censor_symbol== measured=73
compound="CC(C(=O)NNC(=O)NNC(=O)NOCc1ccccc1)c1cccc(Cc2ccccc2)c1 (stereo not given)" experimental_readout=IC50 censor_symbol== measured=96
compound="CC(C)Cc1ccc(C(C)C(=O)NNC(=O)NCC2CCCCC2)cc1 (stereo not given)" experimental_readout=IC50 censor_symbol== measured=26
compound="CC(C)Cc1ccc(C(C)C(=O)NNC(=O)NOCc2ccccc2)cc1 (stereo not given)" experimental_readout=IC50 censor_symbol=≥ measured=250
compound="CC(C)Cc1ccc(C(C)C(=O)NNC(=O)NC2CCCC2)cc1 (stereo not given)" experimental_readout=IC50 censor_symbol== measured=74
compound="CC(C(=O)NNC(=O)NOCc1ccccc1)c1cccc(Oc2ccccc2)c1 (stereo not given)" experimental_readout=IC50 censor_symbol== measured=91
compound=O=C(NNC(=O)n1nnc2ccccc21)NOCc1ccccc1 experimental_readout=IC50 censor_symbol=> measured=250
compound="CC(C(=O)NNC(=O)NCc1ccccc1)c1cccc(Oc2ccccc2)c1 (stereo not given)" experimental_readout=IC50 censor_symbol== measured=72
compound="CC(C(=O)NNC(=O)NCC1CCCCC1)c1cccc(Cc2ccccc2)c1 (stereo not given)" experimental_readout=IC50 censor_symbol== measured=20
compound="CC(C(=O)NN)c1cccc(Cc2ccccc2)c1 (stereo not given)" experimental_readout=IC50 censor_symbol== measured=150
compound="CC(C)Cc1ccc(C(C)C(=O)NNC(=O)NCc2ccccc2)cc1 (stereo not given)" experimental_readout=IC50 censor_symbol== measured=74
compound="CC(C(=O)NNC(=O)NNC(=O)NO)c1cccc(Cc2ccccc2)c1 (stereo not given)" experimental_readout=IC50 censor_symbol=> measured=250
compound="CC(C(=O)NNC(=O)NO)c1cccc(Oc2ccccc2)c1 (stereo not given)" experimental_readout=IC50 censor_symbol== measured=183
compound="CC(C(=O)NNC(=O)NC(c1ccccc1)c1ccccc1)c1cccc(Cc2ccccc2)c1 (stereo not given)" experimental_readout=IC50 censor_symbol== measured=15
compound="CC(C)Cc1ccc(C(C)C(=O)NN)cc1 (stereo not given)" experimental_readout=IC50 censor_symbol== measured=147
compound="CC(C)Cc1ccc(C(C)C(=O)NNC(=O)NNC(=O)NO)cc1 (stereo not given)" experimental_readout=IC50 censor_symbol=> measured=250

The reported measurements were obtained from ChEMBL document CHEMBL2010803.
